The reported numbers originate from PubChem BioAssay (NCI).

# System: MDA-MB-435 melanoma
# assay info: NCI-60 one-dose screen, 48 h (100 = growth as untreated, 0 = no growth, -100 = all killed)
# condition info: 10 µM unless noted
This is part of a sample that, as a whole, favours compounds with a hit. Of some 83,000 tested, about 20% had one in any assay.
# maps each entry to its growth
Could you give me the number in %? Just the number is fine.

| compound | growth [%] |
| --- | --- |
| Cn1cnc([N+](=O)[O-])c1Sc1ncn[nH]1 | 101 |
| CCCCOC(=O)/C=C\C(=O)NC(N)=O | 99.4 |

growth lookup needed for COc1ccc(C(=O)CC(c2ccccc2)C(C#N)c2ccccc2)cc1 (stereo not drawn) , thanks.
78.9

CC1=C/C(O)CC(=O)Cc2nc(co2)C(=O)N2CCC=C2C(=O)OC(C(C)C)C(C)/C=C\C(=O)NC/C=C\1 (stereo not drawn) , same question.
81.2
